- tgt: VLA-4/VCAM-1 (Homo sapiens, UniProt P05556+P13612)
- Construct: endogenous in cells; CHO cells transfected with a human VCAM-1 gene (the ligand VCAM-1)
- Sequence (P13612 34-1032): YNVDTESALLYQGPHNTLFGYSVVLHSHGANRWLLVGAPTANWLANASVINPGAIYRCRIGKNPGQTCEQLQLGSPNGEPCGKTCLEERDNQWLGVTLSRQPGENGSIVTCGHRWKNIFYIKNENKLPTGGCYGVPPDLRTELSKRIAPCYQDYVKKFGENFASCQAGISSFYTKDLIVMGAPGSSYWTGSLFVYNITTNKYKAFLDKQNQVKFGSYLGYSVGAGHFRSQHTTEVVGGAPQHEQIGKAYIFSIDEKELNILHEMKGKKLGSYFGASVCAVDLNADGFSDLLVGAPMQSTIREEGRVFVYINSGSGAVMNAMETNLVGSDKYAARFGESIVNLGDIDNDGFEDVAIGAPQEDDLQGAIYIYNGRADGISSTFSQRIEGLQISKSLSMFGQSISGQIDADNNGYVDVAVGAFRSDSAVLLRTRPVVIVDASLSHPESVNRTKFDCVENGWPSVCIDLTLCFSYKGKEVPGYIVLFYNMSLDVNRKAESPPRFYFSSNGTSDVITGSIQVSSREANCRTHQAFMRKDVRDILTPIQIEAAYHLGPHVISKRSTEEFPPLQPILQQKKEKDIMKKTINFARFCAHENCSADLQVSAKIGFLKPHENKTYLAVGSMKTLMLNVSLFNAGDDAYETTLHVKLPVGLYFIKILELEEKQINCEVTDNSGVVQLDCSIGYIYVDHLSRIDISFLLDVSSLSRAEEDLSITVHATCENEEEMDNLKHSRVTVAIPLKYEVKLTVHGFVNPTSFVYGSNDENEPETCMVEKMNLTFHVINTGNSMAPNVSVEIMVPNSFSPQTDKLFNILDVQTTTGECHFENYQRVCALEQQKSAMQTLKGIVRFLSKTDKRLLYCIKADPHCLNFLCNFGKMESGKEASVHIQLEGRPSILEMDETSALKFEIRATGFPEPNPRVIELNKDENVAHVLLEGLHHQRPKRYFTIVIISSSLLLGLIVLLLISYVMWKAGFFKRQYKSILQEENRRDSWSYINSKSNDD
- Sequence (P05556 21-798): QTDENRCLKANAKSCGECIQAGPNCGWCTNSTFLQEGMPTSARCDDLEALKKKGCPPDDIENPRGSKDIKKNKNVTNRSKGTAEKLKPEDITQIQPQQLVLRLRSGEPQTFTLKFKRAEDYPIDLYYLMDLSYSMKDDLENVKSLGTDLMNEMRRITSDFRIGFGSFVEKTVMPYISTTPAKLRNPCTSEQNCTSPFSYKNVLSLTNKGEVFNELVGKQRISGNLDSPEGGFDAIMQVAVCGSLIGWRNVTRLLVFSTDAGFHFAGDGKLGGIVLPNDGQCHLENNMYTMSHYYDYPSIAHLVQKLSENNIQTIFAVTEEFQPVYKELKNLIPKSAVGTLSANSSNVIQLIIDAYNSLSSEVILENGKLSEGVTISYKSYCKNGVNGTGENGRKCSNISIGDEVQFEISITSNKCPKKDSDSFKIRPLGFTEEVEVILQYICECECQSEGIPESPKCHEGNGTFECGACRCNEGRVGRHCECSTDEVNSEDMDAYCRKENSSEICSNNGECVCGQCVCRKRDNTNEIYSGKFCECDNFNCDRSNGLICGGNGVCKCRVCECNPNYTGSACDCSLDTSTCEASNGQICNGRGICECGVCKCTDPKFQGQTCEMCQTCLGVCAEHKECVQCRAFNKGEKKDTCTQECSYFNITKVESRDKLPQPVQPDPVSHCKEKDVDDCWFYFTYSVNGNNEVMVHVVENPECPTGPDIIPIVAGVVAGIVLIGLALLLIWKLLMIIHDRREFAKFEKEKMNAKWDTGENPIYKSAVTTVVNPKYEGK
- testSummary: VLA-4/VCAM-1 adhesion inhibition test (BCECF-labelled HL-60 cells adhering to VCAM-1 expressing CHO cells)
- testSettings: adhesion of VLA-4 expressing HL-60 cells to CHO cells transfected with human VCAM-1 gene; read-out: 50% inhibition concentration
Friendly reminder: IC50 below 7 nM is TRUE, at or above is FALSE.

• COc1ccc(C(Cc2ccc(NC(=O)c3c(Cl)cccc3Cl)nc2)C(=O)O)cc1N(CC(C)C)C(=O)C(C)C (centres unmarked) [Example 2] = FALSE
• CCC(CC)C(=O)N(CC(C)C)c1cc(C(Cc2ccc(NC(=O)c3c(Cl)cccc3Cl)nc2)C(=O)O)ccc1OC (centres unmarked) [Example 3] = FALSE
• COc1ccc(C(Cc2ccc(NC(=O)c3c(Cl)cncc3Cl)nc2)C(=O)O)cc1N(CC(C)C)C(=O)C(C)(C)C (centres unmarked) [Example 9] = TRUE
• CCOc1ccc(C(Cc2ccc(NC(=O)c3c(Cl)cccc3Cl)nc2)C(=O)O)cc1N(CC(C)C)C(=O)C(C)(C)C (centres unmarked) [Example 6] = FALSE
• COc1ccc(C(Cc2ccc(NC(=O)c3c(Cl)cccc3Cl)nc2)C(=O)O)cc1N(CC(C)C)C(=O)C(C)(C)C (centres unmarked) [Example 1] = TRUE
• CCOc1ccc(C(Cc2ccc(NC(=O)c3c(Cl)cccc3Cl)nc2)C(=O)O)cc1N(CC(C)C)C(=O)C(C)C (centres unmarked) [Example 5] = FALSE
• CCOc1ccc(C(Cc2ccc(NC(=O)c3c(Cl)cccc3Cl)nc2)C(=O)O)cc1N(CC(C)C)C(=O)C(CC)CC (centres unmarked) [Example 7] = FALSE
• CCOc1ccc(C(Cc2ccc(NC(=O)c3c(Cl)cncc3Cl)nc2)C(=O)O)cc1N(CC(C)C)C(=O)C(C)(C)C (centres unmarked) [Example 10] = TRUE
